Assay: Measurement of log P values by HPLC on reversed phase columns (methods [a] pH 2.3, [b] pH 2.7, [c] pH 7.8)
Format: physicochemical
Conditions: HPLC reversed phase, method [b] (pH 2.7)
Task for the reader: assign each of the following compounds its reported logP.

Examples with answers:
O=C(N[C@@H]1C[C@@H]1c1ccc(Cl)cc1Cl)c1c(F)cccc1F (relative stereo): 3.44^[b]
O=C(NC1CC1c1ccc(Cl)cc1Cl)c1ccccc1C(F)(F)F (centres unmarked): 3.46^[b]
O=C(N[C@@H]1CC[C@H]1c1ccc(Cl)cc1Cl)c1ncc(C(F)(F)F)cc1Cl (relative stereo): 4.53^[b]

Please give logP for each item listed below.
1. O=C(NC1CCCC1c1ccc(Cl)cc1Cl)c1ccccc1I (centres unmarked)
2. O=C(N[C@@H]1CC[C@@H]1c1c(F)cccc1C(F)(F)F)c1ncc(C(F)(F)F)cc1Cl (relative stereo)
3. O=C(NC1CCC1c1c(F)cccc1F)c1cccc(Cl)c1 (centres unmarked)
4. O=C(N[C@@H]1CC[C@@H]1c1cc(F)ccc1C(F)(F)F)c1sccc1I (relative stereo)
5. O=C(N[C@@H]1CC[C@@H]1c1ccc(F)cc1C(F)(F)F)c1cccnc1C(F)(F)F (relative stereo)
6. O=C(N[C@@H]1CC[C@@H]1c1ccc(F)cc1C(F)(F)F)c1ccc(Cl)cc1Cl (relative stereo)
7. O=C(N[C@@H]1CCC[C@@H]1c1ccc(C(F)(F)F)cc1)c1cccnc1 (relative stereo)
8. O=C(N[C@@H]1CCC[C@@H]1c1ccccc1F)c1nccnc1Cl (relative stereo)

4.04^[b]
4.13^[b]
3.26^[b]
3.79^[b]
3.02^[b]
3.85^[b]
2.46^[b]
2.61^[b]

Please give logP for each item listed below.
1. O=C(NC1CCCCC1c1c(F)cccc1F)c1ccccc1I (centres unmarked)
2. O=C(NC1CCCCC1c1ccccc1Br)c1ccccc1Cl (centres unmarked)
3. O=C(NC1CC1c1ccc(Cl)cc1)c1c(F)cccc1C(F)(F)F (centres unmarked)
4. O=C(NC1CCCC1c1ccccc1Br)c1cccnc1C(F)(F)F (centres unmarked)
5. O=C(NC1CCC1c1ccc(F)cc1C(F)(F)F)c1sccc1I (centres unmarked) [Compound 519]
6. O=C(N[C@@H]1CC[C@H]1c1ccc(F)cc1C(F)(F)F)c1cccnc1C(F)(F)F (relative stereo)
7. O=C(NC1CCCCC1c1ccc(Cl)cc1Cl)c1cccnc1Cl (centres unmarked)
8. O=C(N[C@@H]1CC[C@@H]1c1ccccc1Cl)c1ccccc1C(F)(F)F (relative stereo)

3.84^[b]
3.97^[b]
3.08^[b]
3.13^[b]
4.09^[b]
3.20^[b]
3.76^[b]
3.23^[b]

Please give logP for each item listed below.
1. O=C(N[C@@H]1C[C@@H]1c1ccc(Cl)cc1Cl)c1nccnc1C(F)(F)F (relative stereo)
2. O=C(NC1CC1c1ccc(Cl)cc1)c1ccsc1I (centres unmarked)
3. Cc1nc(C)c(C(=O)NC2CCCC2c2ccccc2Br)s1 (centres unmarked)
4. Cc1nc(C(F)(F)F)c(C(=O)N[C@@H]2CC[C@H]2c2ccccc2Cl)s1 (relative stereo)

["3.11^[b]", "2.94^[b]", "2.86^[b]", "3.34^[b]"]

Please give logP for each item listed below.
1. O=C(NC1CCCCC1c1ccc(Cl)cc1)c1cccnc1Cl (centres unmarked)
2. O=C(N[C@@H]1CC[C@H]1c1ccc(F)cc1C(F)(F)F)c1c(F)cccc1F (relative stereo)
3. O=C(N[C@@H]1CCC[C@@H]1c1ccc(C(F)(F)F)cc1)c1ccccc1[N+](=O)[O-] (relative stereo)

["2.99^[b]", "3.38^[b]", "3.31^[b]"]

Please give logP for each item listed below.
1. O=C(N[C@@H]1CC[C@H]1c1ccccc1Cl)c1cccnc1 (relative stereo)
2. O=C(NC1CCCC1c1ccc(C(F)(F)F)cc1)c1ccccc1Cl (centres unmarked)
3. O=C(NC1CCCC1c1ccc(Cl)cc1Cl)c1ccccc1C(F)(F)F (centres unmarked)

2.06^[b]
3.68^[b]
4.04^[b]

Please give logP for each item listed below.
1. O=C(N[C@@H]1CC[C@@H]1c1ccccc1Cl)c1c(F)cccc1F (relative stereo)
2. O=C(N[C@@H]1C[C@@H]1c1ccc(Cl)cc1Cl)c1cccnc1C(F)(F)F (relative stereo)
3. O=C(NC1CCCCC1c1ccccc1C(F)(F)F)c1cccnc1C(F)(F)F (centres unmarked) [Example 375]

1. 2.86^[b]
2. 2.85^[b]
3. 3.68^[b]
